The reported numbers originate from ChEMBL document CHEMBL3507680.

Answer each item with its documented cytotoxicity at 70.5 h.
assay: Human HepG2 cell viability assay in 384 well format; assay type: toxicity, cell-based; set-up: dose 125 nL, time 70.5 hour; concentration not given beside the values; conditions: HepG2 cells, read-out: Inhibition
Give bare numbers, in %.

For every item below, please supply its cytotoxicity at 70.5 h.
1. CC(C)NC(=O)C[C@@H]1CCNC[C@@H]1Cc1cc(-c2ccccn2)on1
2. Cc1cccnc1CN1CCN(C(=O)c2cc(Cl)c[nH]c2=O)CC1

1: -16.5; 2: 8.42

Hi there! I need cytotoxicity at 70.5 h for each item below, if you can.
1. CC(=O)N1CC[C@H]2CC(=O)N(C3CC3)CC[C@H]2C1
2. COc1ccccc1COCC(O)CN(C)Cc1cccc(Cl)c1 (stereo not drawn)
3. COCCN(CCOC)C(=O)c1ccn(-c2ccccc2Cl)n1
4. O=C(O)c1cccnc1CN1CCOc2ccccc2C1
5. COc1ccccc1C(C)N(C)Cc1nc2c(cnn2C)c(=O)[nH]1 (stereo not drawn)
6. Cc1cc(C(=O)N2CC[C@@]3(O)CCN(C(=O)N4CCCC4)C[C@H]3C2)no1

1. 14.2
2. -23.5
3. 17.5
4. -9.48
5. -8.94
6. -4

Below are 2 compounds. Give each one its cytotoxicity at 70.5 h.
1. CN(C)C(=O)c1cc2c(nc1NCC1CC1)CCN(CC1CC1)CC2
2. Cc1noc(C2CCC3(CCN(C(=O)c4ccncn4)CC3)O2)n1 (stereo not drawn)

[5.16, 3.42]

Please go through the list and note cytotoxicity at 70.5 h for each compound.
1. CCC(=O)N1CCC(Cc2ccccc2-c2ccncc2)(C(N)=O)C1 (stereo not drawn)
2. CN(C)Cc1csc(-c2nccn2Cc2ccsc2)c1
3. CS(=O)(=O)N1C[C@@H]2CC[C@H](C1)N(CCC(=O)NCc1ccco1)C2
4. Cn1cc(CN2C[C@H]3CCC[C@@H](CNc4nccn4C)[C@H]3C2)cn1

[-10.9, 3.09, 4.49, -3.76]

###

assay: Human HepG2 cell viability assay in 384 well format; type: toxicity, cell-based; design: dose 125 nL, time 70.5 hour; concentration not given beside the values; settings: HepG2 cells, read-out: Inhibition
metric name: cytotoxicity at 70.5 h (%)
One number for each entry, in %.

Sample answers from the record:
# molecule, measurement
rows = [
    ("Cc1ccc(S(=O)(=O)Nc2c(C)nc(N3CCCC3)nc2C)cc1", -2.23),
    ("Cc1nnc(N2CC[C@@]3(O)CCNC[C@H]3C2)c2ccccc12", -12.3),
]

Hello, I would appreciate it if you could give cytotoxicity at 70.5 h for each entry below.
1. Cc1cc(NCc2cc3n(n2)CCCN(C(=O)N(C)C)C3)ncn1
2. CCOC(=O)Cn1ccc2cc(NC(=O)N3CCSCC3)ccc21
3. O=C(NCC(O)c1cccs1)c1sccc1OC(F)F (stereo unspecified)
4. Cl.Cn1ccnc1N1CCN(C(=O)Cc2ccc(F)cc2)CC1
5. Cc1ccc(S(=O)(=O)n2ccn(C(=O)COc3ccccc3)c2=O)cc1
6. Cc1nc(C)n(C2CCCN(C(=O)COc3ccccc3)C2)n1 (stereo unspecified)
7. CN(Cc1cccnc1)[C@@H]1CN(CC2CC2)[C@@H]2CCCO[C@H]12
8. Cc1nc(N2CCCC2)ncc1-c1cc(O)nc(N2CCOCC2)n1

1. -12.5
2. 1.82
3. -3.63
4. 75
5. -9.68
6. -8.86
7. -2.78
8. -4.64

Parameter requested: cytotoxicity at 70.5 h. Apply to each item below.
1. Cc1nc(C)n(C2CCCN(C(=O)c3ccnc(N(C)C)c3)C2)n1 (stereo unspecified)
2. COCCOCCNC(=O)N1CCN(c2ccccc2C#N)CC1
3. O=C(N[C@H]1CN(Cc2ccsc2)[C@@H]2CCCO[C@H]12)C1CC1
4. c1cnc(-c2nc(C3CCOC3)no2)cn1 (stereo unspecified)
5. CSCCCN1C[C@H](NC(=O)c2ccc(C#N)nc2)[C@@H](C2CC2)C1
6. O=C(NCc1ccccc1Cn1ccnc1)N1CCSCC1

1: -3.3; 2: -2.61; 3: -11.3; 4: -3.44; 5: -0.265; 6: -6.06

Need cytotoxicity at 70.5 h for each of these molecules.
1. COc1nc2c(cc1C(=O)N1CCCCC1c1ccccn1)CCC2 (stereo unspecified)
2. CN(C)C(=O)C1OC2(CCN(c3ncc(F)cn3)CC2)c2ccccc21 (stereo unspecified)
3. CNC(=O)C1Cn2ccnc2C2(CCN(Cc3csc(C)n3)CC2)O1 (stereo unspecified)
4. COCc1nnc(-c2cccc(C(=O)N(C(C)C)C3CCC3)c2)o1
5. Cc1nn(C)c(C)c1CC(C)NC(=O)NCc1ccoc1C (stereo unspecified)
6. CC(C)Oc1ccc(C(=O)N2CCCC2c2cnn(C)c2)cn1 (stereo unspecified)
7. CCn1nc(C)c2ccn(CC(=O)NC(C)C)c(=O)c21
8. CCOCc1cccc(S(=O)(=O)N2CCSCC2)c1

[-6.36, 3.5, -2.63, -12.7, -4.68, -3, -2.74, -3.6]

Lab note: each molecule below needs its cytotoxicity at 70.5 h filled in.
1. O=C(c1cnccn1)N1CCN2C[C@H](OCc3ccccc3F)C[C@H]2C1
2. NC1(c2nc(-c3ccccc3)cc(=O)[nH]2)CCCC1
3. CS(=O)(=O)N1C[C@@H]2CC[C@H](C1)N(C(=O)CCn1cnc3ccccc31)C2
4. COc1cncc(-n2ccnc2-c2ccc(C(=O)O)s2)c1

1: -6.71; 2: 13.8; 3: 18.3; 4: -10
